Catalogue of compounds with associated composite z-score
Tested on: Fibrinogen (Alexa647-labelled)
ASSAY PROCEDURE: fibrinogen binders on compound microarrays, profiling panel, artefact control for SMM control-protein annotation, biochemical, small-molecule microarray, 635/667 nm fluorescence (AID 1131);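 also: z-score merges 667 nm fluorescence with per-spot signal-to-noise over triplicate slides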
EXPERIMENTAL PARAMETERS: fibrinogen-A647 binding fluorescence, higher = more signal
I'd appreciate a reply containing only the number, no unit.

Consider the reported composite z-score for these compounds:
• C[C@H]1Cc2c(COc3ccccc3)nc3c(c2CO1)CN(CCOc1ccccc1)CC3 = 0.702
• CO[C@H]1COC(=O)CC=C[C@@H](C)[C@H](OC)COC(=O)CCC[C@@H]1C = -0.511
• CC(C)CON=C1C[C@@H](O)[C@@H](O)[C@@H]2[C@@H]3C(=O)N(c4cccc(Oc5ccccc5)c4)C(=O)[C@@H]3CC[C@@H]12 = 1.02
• COC(=O)CC=C[C@@H](C)[C@@H](C=NOC(C)CN1CCCc2nc(C)c(C)cc21)OC (stereo not given in full) = 0.233
• COC(=O)[C@H](C)NC(=O)CCC1CC(OC(=O)NCc2ccc3c(c2)OCO3)CC2(CCCC(COC(=O)NCc3cccc(C(F)(F)F)c3)O2)O1 (stereo not given in full) = 0.387

Could you now consider this next compound?
Q) Suppose we examine the compound C#CCCCON=C1C[C@@H](O)[C@@H](O)[C@@H]2[C@@H]3C(=O)N(c4ccc(F)cc4F)C(=O)[C@@H]3CC[C@H]12 ; what composite z-score value has been reported?
A) 0.894
